B1: AMOTL2 peptide 66-81 (Angiomotin-like protein 2), 16-mer library wild type / TNKS ANK (TNKS 12 ANK repeats, residues 174-649) (parent)
chain 1: LQQATRQEPQGQEHQG
chain 2: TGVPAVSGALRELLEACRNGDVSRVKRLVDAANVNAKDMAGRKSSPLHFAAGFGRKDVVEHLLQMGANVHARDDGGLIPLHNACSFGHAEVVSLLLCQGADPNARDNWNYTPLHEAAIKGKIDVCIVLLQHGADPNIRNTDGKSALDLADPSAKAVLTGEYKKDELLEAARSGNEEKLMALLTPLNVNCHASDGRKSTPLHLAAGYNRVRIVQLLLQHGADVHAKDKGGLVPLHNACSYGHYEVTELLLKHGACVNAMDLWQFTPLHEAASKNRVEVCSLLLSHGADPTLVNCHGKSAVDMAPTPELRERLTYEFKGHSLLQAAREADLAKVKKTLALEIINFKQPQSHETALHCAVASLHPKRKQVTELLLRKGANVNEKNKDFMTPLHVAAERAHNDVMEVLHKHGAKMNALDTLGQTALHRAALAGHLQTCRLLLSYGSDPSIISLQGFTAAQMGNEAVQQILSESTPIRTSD

# Variants of: B1
# run-description: proteomic peptide phage display deep mutational scan (ProP-PD DMS): M13 P8 16-mer library selected against immobilised GST-tagged bait for four days (rounds), NGS of the eluted pools per day and pseudo-replica
# conditions: with TNKS ANK (TNKS 12 ANK repeats, residues 174-649); bait immobilised on MaxiSorp plates (10 µg), library pre-cleared on GST, 2 h binding at 4 °C, five washes; one round per day, days 1-4; value from days 2 and 3; keep out of graded; scale: average fractional NGS count over selection days 2 and 3
outcome-measure: screen value

The cases that follow already have their screen value on record.
# variant-annotation, readout-value
data = [
    ("chain 1 H14T", "3.21e-05"),
    ("chain 1 E13K", 0),
    ("chain 1 Q10F", 0),
    ("chain 1 Q2F", "3.49e-05"),
    ("chain 1 Q10V", "6.99e-05"),
    ("chain 1 Q10M", "4.87e-05"),
]

Provide screen value for all items below, preserving their order.
1. chain 1 Q10T
2. chain 1 A4E
3. chain 1 H14P

Result:
1: 3.04e-05; 2: 4.24e-05; 3: 6.39e-05

Each variant below has a recorded value; state its screen value.
1. chain 1 Q10K
2. chain 1 Q12S

Result:
0
5.26e-05
